Where do the numbers come from? From paper PMC4834983.

system: pYStat3; experiment: Immunoblotting of pStat3 in treated U251MG cells; type: cell-based, human; details: 5 μM, glioma cells, immunoblotting
Value Kind: effect on pStat3 in treated tumor cells

Worked cases, answers included:
1) C/C=C(\C)C(=O)O[C@H]1C[C@@H](C)[C@]2(OC)CC[C@](C)(/C=C3/OC(=O)C(COC(C)=O)=C31)O2 [Compound 10]	strongly inhibited
2) C[C@@H]1C[C@H](O)C2=C(COC(=O)CCc3ccccc3)C(=O)O/C2=C/[C@@]2(C)CC[C@]1(O)O2 [Compound 36]	suppressed
3) C/C(=C\CO)C(=O)O[C@H]1C[C@@H](C)[C@]2(O)CC[C@](C)(/C=C3/OC(=O)C(CO)=C31)O2 [Compound 21]	little impact
4) C/C=C(\C)C(=O)OCC1=C2/C(=C\[C@@]3(C)CC[C@](O)(O3)[C@H](C)C[C@@H]2O)OC1=O [Compound 22]	strongly inhibited
5) C/C=C(\C)C(=O)O[C@H]1C[C@@H](C)[C@]2(O)CC[C@](C)(/C=C3/OC(=O)C(COC(C)=O)=C31)O2 [Compound 6]	strongly inhibited
6) C/C=C(\C)C(=O)O[C@H]1C[C@@H](C)[C@]2(O)CC[C@](C)(/C=C3/OC(=O)C(CO)=C31)O2 [Compound 8]	little impact

Query block: Returns the measured effect on pStat3 in treated tumor cells for the input compound. Input: C/C=C(\C)C(=O)OCC1=C2/C(=C\[C@@]3(C)CC[C@](O)(O3)[C@H](C)C[C@@H]2OC(=O)/C(C)=C/C)OC1=O [Compound 38]
Result block: suppressed

Query block: Returns the measured effect on pStat3 in treated tumor cells for the input compound. Input: C[C@@H]1C[C@H](O)C2=C(CO)C(=O)O/C2=C/[C@@]2(C)CC[C@]1(O)O2 [Compound 14]
Result block: little impact

Query block: Returns the measured effect on pStat3 in treated tumor cells for the input compound. Input: CC(C)=CCCC(C)CC(=O)OCC1=C2/C(=C\[C@@]3(C)CC[C@](O)(O3)[C@H](C)C[C@@H]2O)OC1=O (some centres unmarked) [Compound 33]
Result block: suppressed

Query block: Returns the measured effect on pStat3 in treated tumor cells for the input compound. Input: C/C=C(/C)C(=O)O[C@H]1C[C@@H](C)[C@]2(O)CC[C@](C)(/C=C3/OC(=O)C(CO)=C31)O2 [Compound 19]
Result block: little impact

Query block: Returns the measured effect on pStat3 in treated tumor cells for the input compound. Input: C[C@@H]1C[C@H](O)C2=C(COC(=O)/C=C/c3ccccc3)C(=O)O/C2=C/[C@@]2(C)CC[C@]1(O)O2 [Compound 30]
Result block: suppressed

Query block: Returns the measured effect on pStat3 in treated tumor cells for the input compound. Input: C=C(C)C(=O)O[C@H]1C[C@@H](C)[C@]2(OC)CC[C@](C)(/C=C3/OC(=O)C(COC(C)=O)=C31)O2 [Compound 9]
Result block: little impact

Query block: Returns the measured effect on pStat3 in treated tumor cells for the input compound. Input: C=C(C)C(=O)O[C@H]1C[C@@H](C)[C@]2(O)CC[C@](C)(/C=C3/OC(=O)C(CO)=C31)O2 [Compound 18]
Result block: little impact

Query block: Returns the measured effect on pStat3 in treated tumor cells for the input compound. Input: C/C=C(\C)C(=O)OCC1=C2/C(=C\[C@@]3(C)CC[C@](OC)(O3)[C@H](C)C[C@@H]2OC(=O)/C(C)=C/C)OC1=O [Compound 39]
Result block: suppressed

====

biological target: Stat3:Stat3 (Mus musculus); experiment: Cell-free EMSA, nuclear extracts pre-incubated with compound, hSIE probe; assay type: biochemical; details: 5 μM, 30 min pre-incubation, NIH3T3/v-Src nuclear extracts
Value Kind: Stat3:Stat3/DNA-binding activity (complexation), cell-free EMSA

1) C[C@@H]1C[C@H](O)C2=C(COC(=O)/C=C/c3ccc(C(F)(F)F)cc3)C(=O)O/C2=C/[C@@]2(C)CC[C@]1(O)O2	diminished
2) C/C=C(\C)C(=O)OCC1=C2/C(=C\[C@@]3(C)CC[C@](O)(O3)[C@H](C)C[C@@H]2OC(=O)/C(C)=C/C)OC1=O	diminished
3) CC(C)=CCCC(C)CC(=O)OCC1=C2/C(=C\[C@@]3(C)CC[C@](O)(O3)[C@H](C)C[C@@H]2O)OC1=O (stereo partly drawn)	diminished

====

system: pYStat3; experiment: Immunoblotting of pStat3 in treated U251MG cells; type: cell-based, human; conditions: 5 μM, glioma cells, immunoblotting
Value Kind: effect on pStat3 in treated tumor cells

1. C=C(C)C(=O)O[C@H]1C[C@@H](C)[C@]2(O)CC[C@](C)(/C=C3/OC(=O)C(COC(C)=O)=C31)O2	strongly inhibited
2. C/C=C(/C)C(=O)O[C@H]1C[C@@H](C)[C@]2(O)CC[C@](C)(/C=C3/OC(=O)C(COC(C)=O)=C31)O2	strongly inhibited

====

molecular target: Stat3:Stat3 (Mus musculus, UniProt P42227); assay: Cell-free EMSA, nuclear extracts pre-incubated with compound, hSIE probe; type: biochemical; details: 5 μM, 30 min pre-incubation, NIH3T3/v-Src nuclear extracts
Sequence (P42227 2-770 limits assumed): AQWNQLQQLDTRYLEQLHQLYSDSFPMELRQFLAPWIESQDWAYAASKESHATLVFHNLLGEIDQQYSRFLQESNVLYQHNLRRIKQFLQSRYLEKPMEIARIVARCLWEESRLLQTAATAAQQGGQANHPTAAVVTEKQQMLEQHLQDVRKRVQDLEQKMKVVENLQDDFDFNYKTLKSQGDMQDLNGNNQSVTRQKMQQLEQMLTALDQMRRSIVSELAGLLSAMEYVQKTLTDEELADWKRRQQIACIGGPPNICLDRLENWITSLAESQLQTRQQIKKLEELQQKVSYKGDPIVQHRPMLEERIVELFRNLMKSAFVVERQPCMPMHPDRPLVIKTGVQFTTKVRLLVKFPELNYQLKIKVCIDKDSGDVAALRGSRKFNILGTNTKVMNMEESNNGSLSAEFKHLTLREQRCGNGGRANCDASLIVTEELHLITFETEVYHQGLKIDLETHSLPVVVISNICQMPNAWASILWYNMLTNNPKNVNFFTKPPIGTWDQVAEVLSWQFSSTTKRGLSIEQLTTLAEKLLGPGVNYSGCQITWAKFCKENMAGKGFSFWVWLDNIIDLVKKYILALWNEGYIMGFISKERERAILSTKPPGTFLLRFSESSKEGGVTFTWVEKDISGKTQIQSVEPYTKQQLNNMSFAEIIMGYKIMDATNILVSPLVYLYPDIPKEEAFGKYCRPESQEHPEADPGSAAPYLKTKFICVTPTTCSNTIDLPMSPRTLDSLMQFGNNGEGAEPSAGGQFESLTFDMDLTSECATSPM
Value Kind: Stat3:Stat3/DNA-binding activity (complexation), cell-free EMSA

1) C/C(=C\CO)C(=O)O[C@H]1C[C@@H](C)[C@]2(O)CC[C@](C)(/C=C3/OC(=O)C(CO)=C31)O2 [Compound 21]	only weakly inhibited
2) C[C@@H]1C[C@H](O)C2=C(CO)C(=O)O/C2=C/[C@@]2(C)CC[C@]1(O)O2 [Compound 14]	only weakly inhibited
